# Tested on: zebrafish hearing thresholds
# experimentSummary: Auditory evoked potential (AEP) testing in zebrafish inner ear model
# Format: in vivo, Danio rerio
# experimentalParameters: 100 Hz, 25 mg/kg i.p., 48 h
reportedProperty: AEP hearing threshold, significance of pairwise comparison against vehicle

[NH3+][Pt-2]([NH3+])([Cl])[n+]1ccccc1 (stereo not shown); * (* p ≤ 0.05)
[Cl][Pt-2]12[NH2+]CC[NH+]1CC[NH2+]2 (stereo not shown) [[Pt(dien)Cl]^+, Pt(diethylenetriamine)Cl]; * (* p ≤ 0.05)

====

# Test system: zebrafish hearing thresholds
# experimentSummary: Auditory evoked potential (AEP) testing in zebrafish inner ear model
# Format: in vivo, Danio rerio
# experimentalParameters: 800 Hz, 25 mg/kg i.p., 48 h
reportedProperty: AEP hearing threshold, significance of pairwise comparison against vehicle

CC[N+]1(CC)CC[NH+]2CC[NH2+][Pt-2]21[Cl] (stereo not shown) [[Pt(Et2dien)Cl]^+, Pt(N,N-diethyldiethylenetriamine)Cl]; **** (**** p ≤ 0.0001)
[Cl][Pt-2]12[NH2+]CC[NH+]1CC[NH2+]2 (stereo not shown) [[Pt(dien)Cl]^+, Pt(diethylenetriamine)Cl]; **** (**** p ≤ 0.0001)
